Measured % inhibition Apo pol 10', listed per entry for reference.
Target: P. falciparum apicoplast DNA polymerase (Pf-apPOL) (Plasmodium falciparum)
Sequence (Q8ILY1 entry or part of it): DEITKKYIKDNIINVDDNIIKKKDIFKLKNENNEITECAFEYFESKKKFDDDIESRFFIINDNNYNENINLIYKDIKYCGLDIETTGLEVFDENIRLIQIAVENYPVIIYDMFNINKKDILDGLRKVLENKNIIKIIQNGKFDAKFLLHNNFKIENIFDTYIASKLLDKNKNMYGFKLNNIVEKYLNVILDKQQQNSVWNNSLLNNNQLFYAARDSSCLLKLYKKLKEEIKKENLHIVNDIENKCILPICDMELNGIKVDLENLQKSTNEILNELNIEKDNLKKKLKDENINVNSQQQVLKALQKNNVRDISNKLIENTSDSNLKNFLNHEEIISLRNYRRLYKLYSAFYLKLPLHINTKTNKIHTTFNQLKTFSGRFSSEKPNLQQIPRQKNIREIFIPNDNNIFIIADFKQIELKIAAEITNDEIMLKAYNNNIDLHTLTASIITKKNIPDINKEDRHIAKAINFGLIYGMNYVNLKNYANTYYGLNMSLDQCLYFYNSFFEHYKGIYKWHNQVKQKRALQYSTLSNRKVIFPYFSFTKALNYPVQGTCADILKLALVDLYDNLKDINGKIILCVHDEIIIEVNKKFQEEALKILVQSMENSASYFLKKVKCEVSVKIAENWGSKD
Assay: Fluorescence-based high-throughput DNA polymerase assay (molecular beacon), primary screen and dose-response
Assay type: biochemical
Details: DRC-1; 10'; concentration 20
Text: The HT assay employs a molecular beacon, a stem-loop DNA template with a Cy3 dye and the Black Hole Quencher on the 3′ and 5′ ends of the DNA, respectively. Pf-apPOL concentration is based on a calculated absorptivity of ε280 = 56750 M^−1 cm^−1. […] To identify apPOL inhibitors we utilised our previously developed high-throughput DNA polymerase assay. […] The assay accurately recapitulates the kinetic behaviour of apPOL, as measured through more conventional low-throughput gel-based assays. […]

Use these answered entries as a reference point.
compound: CC(C)(C)c1cc(C(=O)C(C#N)=NNc2cccc(Cl)c2)no1
% inhibition Apo pol 10': 87.204%
--
compound: O=[N+]([O-])c1ccc(/C=C/c2ccc3ccccc3n2)o1
% inhibition Apo pol 10': 76.4404%
--
compound: COc1ccc(S(=O)(=O)/N=C2\NC(=O)/C(=C3\C(=O)Nc4ccc([N+](=O)[O-])cc43)S2)cc1
% inhibition Apo pol 10': 96.4602%
--
compound: CCN1C(=O)C(=Cc2cccc(OC)c2O)SC1=S
% inhibition Apo pol 10': 2.662%
--
compound: Cc1ccc(C(=O)/C=C/C=C/C=C/N(C)C)o1
% inhibition Apo pol 10': 65.9561%

Could you tell me which % inhibition Apo pol 10' is on file for "O=c1cc(CN2CCCCC2)c2cc3c(cc2o1)OCO3" ?
32.3483%

Could you tell me which % inhibition Apo pol 10' is on file for "O=C(Nc1ncc([N+](=O)[O-])s1)c1ccc2c(c1)C(=O)N(N1C(=O)c3ccccc3C1=O)C2=O" ?
47.1491%

Could you tell me which % inhibition Apo pol 10' is on file for "COc1ccccc1CCC(=O)N1CCc2c(nc3cc(-c4ccccc4)[nH]n3c2=O)C1" ?
82%

Could you tell me which % inhibition Apo pol 10' is on file for "O=C(Nc1cccc(C(=O)Nc2ccc(S(=O)(=O)[O-])c3cc(S(=O)(=O)[O-])cc(S(=O)(=O)[O-])c23)c1)Nc1cccc(C(=O)Nc2ccc(S(=O)(=O)[O-])c3cc(S(=O)(=O)[O-])cc(S(=O)(=O)[O-])c23)c1.[Na+].[Na+].[Na+].[Na+].[Na+].[Na+]" ?
81.9365%

Could you tell me which % inhibition Apo pol 10' is on file for "O=[N+]([O-])c1cc2c(cc1CN1CCN(c3cccc(Cl)c3)CC1)OCO2" ?
58.0522%

Could you tell me which % inhibition Apo pol 10' is on file for "COc1ccc(-c2cc3nc4c(c(=O)n3[nH]2)CCN(C(=O)CCc2ccccc2)C4)cc1" ?
81%

Could you tell me which % inhibition Apo pol 10' is on file for "Cc1ccc(C)c(CSc2nc(C3CCCCC3)c(C#N)c(=O)[nH]2)c1" ?
88.8023%

Could you tell me which % inhibition Apo pol 10' is on file for COc1ccc(NC(=O)Cn2ccc3c(=O)[nH]ccc32)cc1Cl [Molecule 10, COc1ccc(cc1Cl)NC(=O)Cn1ccc2c1cc[nH]c2=O] ?
78.092%

Could you tell me which % inhibition Apo pol 10' is on file for CSC1=C(C#N)C(=C(C#N)C#N)NC(c2ccccc2)=N1 [Molecule 2, CSc1nc([nH]c(=C(C#N)C#N)c1C#N)c1ccccc1] ?
90.9481%

Entry source: paper PMC9090415
